Reference source for all entries: the EternaBench riboswitch data

# System: MS2 coat protein
# methodNotes: apparent Kd, MS2 coat protein; higher = weaker binding; RNA-MaP array; FMN 200 µM where present
# measurementConditions: designed as: OFF switch for flavin mononucleotide; no ligand
Threshold rule: apparent Kd greater than or equal to 20 nM is t; below that, f.

Answered examples (5):
UUUUAACAUGAGGAUCACCCAUGUGAGGAUAUCGAAAUUUAUAUUUAUAUUAAUUAUUCGAGAAGGCACAUUUU    t
CUGAGCUGAGGAUAUACAUGAGGAUCACCCAUGUGUUGGAGCUUGCGUACAGGCAGAUGUAGAAGGCAGUUCGG    t
AAAUACAGAGGAUAUGUACGAAUUGACAUGAGGAUCACCCAUGUGACUUCGUGCACUUUGACAGAAGGCUGGGAAU    f
GUGACGAAUGUAGGAUAUGCUGAGGAAUACUCAGCAGAAGGACAUGAGGAUCACCCAUGUACUAUGAGUGAAUAAUAACGUCAC    t
AGACUCUCUGGAGGAUAUCAUAGUCGUUGACUAUGAGAAGGUUAGCUAUCUUACAUGAGGAUCACCCAUGUGAUCUCUCUCGAG    f

As a next step, examine the sequence that follows.
Q) Textbook exercise: given the entry GGAUAGGACAGAGGAUAUACGUGCUAGAGAUACUAGCAAAAUUUCCUGACAUGAGGAUCACCCAUGUAGAAGGCUGUCCUAUCG , state whether its apparent Kd is greater than or equal to 20 nM.
A) f
